measured_property: melting point

NC1=NC(c2ccc(OC(F)(F)F)cc2)(c2ccc(F)c(-c3cncnc3)c2)C2=NCCCN12 (stereo not shown)
105 to 115 °C

Short answer for NC1=NC(c2cccc(-c3cccnc3F)c2)(c2ccc3c(c2)OCO3)C2=NCCCN12 (stereo not shown) : melting point was 106 to 119 °C

Short answer for COCOc1ccc(C2(c3cccc(-c4cccnc4F)c3)N=C(N)N3CCCN=C32)cc1 (stereo not shown) : melting point was 95 to 105 °C

Short answer for NC1=NC(c2ccc(OC(F)(F)F)cc2)(c2cccc(-c3cncc(Cl)c3)c2)C2=NCCCN12 (stereo not shown) : melting point was 112 to 116 °C

Short answer for NC1=NC(c2ccc(OC(F)F)cc2)(c2cccc(-c3cccnc3F)c2)C2=NCCCN12 (stereo not shown) : melting point was 104 to 114 °C

Short answer for N#CNC1=NC(c2ccc(OC(F)(F)F)cc2)(c2cccc(-c3cncnc3)c2)C2=NCCCN12 (stereo not shown) : melting point was 227 to 231 °C

Short answer for COc1ccc(C2(c3ccc(F)c(-c4cncnc4)c3)N=C(N)N3CCCN=C32)cc1 (stereo not shown) : melting point was 122 °C

Short answer for NC1=NC(c2ccc(OC(F)(F)F)cc2)(c2cccc(-c3cc(F)cnc3F)c2)C2=NCCCN12 (stereo not shown) : melting point was 94 to 102 °C

Short answer for NC1=NC(c2ccc(OC(F)F)cc2)(c2cccc(-c3cccnc3F)c2)C2=NCC3(CC3)CN12 (stereo not shown) : melting point was 98 to 108 °C

Short answer for NC1=NC(c2ccc(OC(F)(F)F)cc2)(c2cccc(-c3cncnc3)c2)C2=NCCCN12 (stereo not shown) : melting point was 214 to 218 °C

---

measured_property: melting point

Take a look at these entries with their results.
NC1=NC(c2ccc(OC(F)(F)F)cc2)(c2cccc(-c3cccnc3F)c2)C2=NCCCN12 (stereo not shown) [Example 17]
105 to 115 °C
COc1ccc(C2(c3ccc(F)c(-c4cccnc4F)c3)N=C(N)N3CCCN=C32)cc1 (stereo not shown) [Example 24]
115 °C
COc1ccc(C2(c3cccc(-c4cncnc4)c3)N=C(N)N3CCCN=C32)cc1 (stereo not shown) [Example 22]
136 to 140 °C

Short answer for NC1=NC(c2ccc(OC(F)F)cc2)(c2cccc(-c3cccnc3F)c2)C2=NCC3(CCC3)CN12 (stereo not shown) [Example 47] : melting point was 220 to 226 °C
